Test system: SK-MEL-5 melanoma
Experiment: NCI-60 one-dose screen, 48 h (100 = growth as untreated, 0 = no growth, -100 = all killed)
Conditions: 10 µM unless noted
Method: Growth inhibition of the SK-MEL-5 human tumor cell line is measured as a screen for anti-cancer activity. Cells are grown in 96 well plates and exposed to the test compound for 48 hours. Compounds are tested at a single concentration, which is 10^-5 M for most compounds. The reported endpoint is percent growth (GI% or GIPRCNT), where numbers from 0 - 100% represent growth inhibition, and numbers from -100% - 0 represent cell death. For example, a value of 40 represents 60% growth inhibition. […]
The panel holds about 83,000 compounds, 20% with a hit somewhere; the sample as a whole holds those more often.
parameter.measured: growth (%)
Lab book: enter the figure in %, no units written.

{"columns": ["compound", "output.unit", "growth"],
 "data": [
  ["CCn1c2ccc(/C=N/OCCCN(C)C)cc2c2cc(/C=N/OCCCN(C)C)ccc21", "%", -95.6],
  ["O=C1c2c(c3c4cc(Br)ccc4[nH]c3c3ccc4ccccc4c23)C(=O)N1CCN1CCNCC1", "%", 91.4],
  ["CCOC(=O)/C=c1\\sc2n(c1=O)C1C(NN=2)N(CC)C(=O)N1CC (centres undefined)", "%", 54],
  ["c1ccc(-c2c(-c3ccccc3)[n+](Cc3ccc4ccccc4c3)c(-c3ccccc3)n2Cc2ccc3ccccc3c2)cc1", "%", -99.1],
  ["C#CCOc1ccc(C(Nc2cc(Cl)ccc2Cl)c2nnnn2C2CCCCC2)cc1 (centres undefined)", "%", 95.4]
]}

// fetch growth given entry `Clc1ccc(-c2csc(Nc3cccc(Nc4csc(-c5ccc(Cl)cc5)n4)c3)n2)cc1`
96.2

Supply recorded growth for `O=C(COc1cccc2cccnc12)Nc1ccc(C(=O)/C=C/c2ccc(Cl)cc2)cc1` here.
83.7

For the compound `Cc1ccc(/C=C/CC(=O)Nc2ccc(C(=O)Nc3ccc(F)cc3N)nc2)cn1` , give its reported growth.
20.9

Give me measured growth, please, for this compound: O=C(COc1ccc(C2SCC(=O)N2c2ccccc2)cc1)c1ccccc1 (centres undefined)
94.4

Answer with reported growth of `CNC(=O)c1cc(Oc2ccc3nc(NC(=O)c4cccc(C(F)(F)F)c4)sc3c2)ccn1`
101

Provide only the value of recorded growth for `O=C(Nc1ccc(Cl)cc1)Nc1nc2ccc([N+](=O)[O-])cc2s1`
-83.7

Look up and report measured growth for this entry: `CN1CCN(Cc2ccc(NC(=O)c3cncc(C#Cc4cnc5ccc(O[C@H]6CCOC6)nn45)c3)cc2C(F)(F)F)CC1`
-95.2

Identify measured growth corresponding to `CCOC(=O)c1nn(-c2ccccc2)c(=O)c2c(N)c(C#N)c(-c3cccs3)cc12`
96.4

###

test system: NCI-H460 lung; experiment: NCI-60 one-dose screen, 48 h (100 = growth as untreated, 0 = no growth, -100 = all killed); conditions: 10 µM unless noted
About 83,000 compounds went through this panel and 20% of them were active in at least one assay; those are over-represented in the sample as a whole.
Documented growth across a set of compounds
Record the value in %, omitting the unit from your answer.

The examples below pair each entry with its known result.
{"columns": ["compound", "output.unit", "numeric.result"],
 "data": [
  ["Cc1ccc(C2CC(c3ccc(Nc4nc(NCCO)nc(Nc5ccc(Cl)cc5)n4)cc3)=Nc3c(N)nc(N)nc3N2)cc1 (centres undefined)", "%", -84.8],
  ["COc1cnc2c(c1)C(=O)c1c-2n(CCCNCC2CC2)c(=O)c2cc(F)ccc12", "%", -66.6]
]}

Give the value of growth reported for the following: `COc1ccc(/C(C)=C(\c2ccc(Cl)cc2)c2ccc(OCCN)cc2)cc1`
60.8

Give recorded growth. `C/C(Cc1ccc(Cl)cc1)=C(/c1ccccc1)c1ccc(OCCN)cc1`
104

###

tested on: SF-295 CNS; assay: NCI-60 one-dose screen, 48 h (100 = growth as untreated, 0 = no growth, -100 = all killed); settings: 10 µM unless noted
This is part of a sample that, as a whole, favours compounds with a hit. Of some 83,000 tested, about 20% had one in any assay.
Listing: growth of selected compounds
The response must be a number in % with no trailing unit.

{"columns": ["smiles.structure", "output.unit", "growth"],
 "data": [
  ["O=C(NCCCNc1cc(-c2cn(-c3ccccc3)nc2-c2cccc(O)c2)ccn1)Nc1cc(C(F)(F)F)cc(C(F)(F)F)c1", "%", 45.3],
  ["C#C[C@]1(O)CC[C@H]2[C@@H]3CC=C4c5sc(C6CC6)nc5CC[C@]4(C)[C@H]3CC[C@@]21C", "%", 43.7],
  ["CN1CCN(c2ccc(C(=O)/C=C/c3ccc(Cl)c(C(F)(F)F)c3)cc2)CC1", "%", 103],
  ["O=C(Nc1cccc(-c2nc(-c3ccc(NC(=O)c4cccnc4)cc3Cl)no2)c1)Nc1ccc(NC(=O)C2CC2)c(C(F)(F)F)c1", "%", -81.1],
  ["COc1ccc2oc3c4[nH]c5ccccc5c4c4c(c3c2c1)C(=O)N(O)C4=O", "%", 106]
]}

Answer with the recorded growth for the compound listed here: `CC(=O)Nc1nc2c(s1)C1=CC[C@H]3[C@@H]4CC[C@H](C(C)=O)[C@@]4(C)CC[C@@H]3[C@@]1(C)CC2`
-16.9

###

system: PC-3 prostate; test: NCI-60 one-dose screen, 48 h; conditions: 10 µM unless noted
This is part of a sample that, as a whole, favours compounds with a hit. Of some 83,000 tested, about 20% had one in any assay. Active and inactive are the calls of the source. Rule for the calls: active = growth percent below 10; inactive = the rest.
Could you please pick one outcome from this set? active, inactive

// below: answered compounds
{"columns": ["smiles.structure", "experimental.target", "discrete.label"],
 "data": [
  ["O=[N+]([O-])c1ccc(-c2nnc(SCc3ccc(O)c4ncccc34)n2-c2ccccc2)cc1", "PC-3 prostate", "inactive"],
  ["COc1ccc(S(=O)(=O)n2cc(C=O)c3ccccc32)c(OC)c1", "PC-3 prostate", "inactive"],
  ["C/C(=N/Nc1nc(N/N=C(/C)c2ccc([N+](=O)[O-])cc2)nc(N2CCOCC2)n1)c1ccc([N+](=O)[O-])cc1", "PC-3 prostate", "inactive"]
]}

I would be grateful if you could indicate the recorded call for `O=C(c1cccc(F)c1)n1ccc2cc(NC(=S)Nc3cccnc3)ccc21` .
inactive

For `O=C(/C=C/c1cccc(O)c1)c1ccc(O)cc1` , which call appears in the assay record?
inactive

Recorded call for `COc1cc(/C=N/n2cnc3oc(-c4ccccc4)cc3c2=N)cc(CN2CCCCC2)c1O` ?
active

What did this assay record as the result for `O=C(CSc1ccc(-c2nc3ccccc3[nH]2)cn1)N1CCN(c2ccccc2F)CC1` ?
inactive

Recorded call for `CN1CCN(c2ccc3c(c2)nc(NNC(=O)c2ccncn2)c2cccn23)CC1` ?
inactive

For this compound, state the assay outcome: `C=C(C)[C@@H]1CC[C@]2(C(=O)NCCCN(CCC#N)CCC#N)CC[C@]3(C)[C@H](CC[C@@H]4[C@@]5(C)CCC(=O)C(C)(C)[C@@H]5CC[C@]43C)[C@@H]12`
inactive

# fetch the recorded call for `CC(C)=CCc1c(O)c(CC=C(C)C)c2c(c1O)C(=O)C1=C[C@@H]3C[C@H]4C(C)(C)O[C@@](C/C=C(\C)C(=O)O)(C3=O)[C@@]14O2` here
inactive

###

test system: NCI-H322M lung; assay: NCI-60 one-dose screen, 48 h (100 = growth as untreated, 0 = no growth, -100 = all killed); details: 10 µM unless noted
Compounds without any hit were thinned out: in the full panel of roughly 83,000, 20% have a hit.
parameter.measured: growth (%)
# unit: % | format: bare number

// known answers, use as guide
{"columns": ["compound", "growth (%)"],
 "data": [
  ["C=CCn1c(SCC(=O)c2ccc(OC)cc2)nnc1-c1ccc(OC)cc1", 97.4],
  ["CN1CCN(c2ccc(C(=O)Nc3cccc(-c4cn(-c5ccc(S(N)(=O)=O)cc5)nn4)c3)cc2C(F)(F)F)CC1", 72],
  ["O=c1cc(-c2ccccc2)nc2sc(-c3c[nH]c4ccc(Br)cc34)nn12", 92.8],
  ["CC1CCc2c(sc3nc(SCC(=O)N/N=C/c4cccc(O)c4O)n(-c4ccccc4)c(=O)c23)C1 (stereo not drawn)", 96.8],
  ["CCc1ccc(NC(=O)N[C@@H](Cc2cccc(C)c2)C(=O)N[C@@H]2C(=O)N3CCC[C@H]3C(=O)N3CCCC[C@H]3C(=O)N[C@@H](CO)C(=O)N3C[C@H](C)C[C@H]3C(=O)O[C@H]2C)c(F)c1", 49.9]
]}

Determine from records and report growth for `O=C(NCCCNc1cc(-c2cn(-c3ccccc3)nc2-c2cccc(O)c2)ccn1)Nc1cc(C(F)(F)F)cc(C(F)(F)F)c1`
90.3

Query growth for `Cn1cc(-c2nnc(N)nc2-c2cn(C)c3ccc(F)cc23)c2cc(F)ccc21`
101

Return value of growth for input `COc1ccc([C@H]2[C@H](O)C(=O)N2c2cc(OC)c(OC)c(OC)c2)cc1O` , no commentary.
51.4

Reference source: PubChem BioAssay (NCI)
